System tested: DNA (cytosine-5)-methyltransferase 1 (Mus musculus)
Sequence (P13864 whole entry, the tested form may be a part): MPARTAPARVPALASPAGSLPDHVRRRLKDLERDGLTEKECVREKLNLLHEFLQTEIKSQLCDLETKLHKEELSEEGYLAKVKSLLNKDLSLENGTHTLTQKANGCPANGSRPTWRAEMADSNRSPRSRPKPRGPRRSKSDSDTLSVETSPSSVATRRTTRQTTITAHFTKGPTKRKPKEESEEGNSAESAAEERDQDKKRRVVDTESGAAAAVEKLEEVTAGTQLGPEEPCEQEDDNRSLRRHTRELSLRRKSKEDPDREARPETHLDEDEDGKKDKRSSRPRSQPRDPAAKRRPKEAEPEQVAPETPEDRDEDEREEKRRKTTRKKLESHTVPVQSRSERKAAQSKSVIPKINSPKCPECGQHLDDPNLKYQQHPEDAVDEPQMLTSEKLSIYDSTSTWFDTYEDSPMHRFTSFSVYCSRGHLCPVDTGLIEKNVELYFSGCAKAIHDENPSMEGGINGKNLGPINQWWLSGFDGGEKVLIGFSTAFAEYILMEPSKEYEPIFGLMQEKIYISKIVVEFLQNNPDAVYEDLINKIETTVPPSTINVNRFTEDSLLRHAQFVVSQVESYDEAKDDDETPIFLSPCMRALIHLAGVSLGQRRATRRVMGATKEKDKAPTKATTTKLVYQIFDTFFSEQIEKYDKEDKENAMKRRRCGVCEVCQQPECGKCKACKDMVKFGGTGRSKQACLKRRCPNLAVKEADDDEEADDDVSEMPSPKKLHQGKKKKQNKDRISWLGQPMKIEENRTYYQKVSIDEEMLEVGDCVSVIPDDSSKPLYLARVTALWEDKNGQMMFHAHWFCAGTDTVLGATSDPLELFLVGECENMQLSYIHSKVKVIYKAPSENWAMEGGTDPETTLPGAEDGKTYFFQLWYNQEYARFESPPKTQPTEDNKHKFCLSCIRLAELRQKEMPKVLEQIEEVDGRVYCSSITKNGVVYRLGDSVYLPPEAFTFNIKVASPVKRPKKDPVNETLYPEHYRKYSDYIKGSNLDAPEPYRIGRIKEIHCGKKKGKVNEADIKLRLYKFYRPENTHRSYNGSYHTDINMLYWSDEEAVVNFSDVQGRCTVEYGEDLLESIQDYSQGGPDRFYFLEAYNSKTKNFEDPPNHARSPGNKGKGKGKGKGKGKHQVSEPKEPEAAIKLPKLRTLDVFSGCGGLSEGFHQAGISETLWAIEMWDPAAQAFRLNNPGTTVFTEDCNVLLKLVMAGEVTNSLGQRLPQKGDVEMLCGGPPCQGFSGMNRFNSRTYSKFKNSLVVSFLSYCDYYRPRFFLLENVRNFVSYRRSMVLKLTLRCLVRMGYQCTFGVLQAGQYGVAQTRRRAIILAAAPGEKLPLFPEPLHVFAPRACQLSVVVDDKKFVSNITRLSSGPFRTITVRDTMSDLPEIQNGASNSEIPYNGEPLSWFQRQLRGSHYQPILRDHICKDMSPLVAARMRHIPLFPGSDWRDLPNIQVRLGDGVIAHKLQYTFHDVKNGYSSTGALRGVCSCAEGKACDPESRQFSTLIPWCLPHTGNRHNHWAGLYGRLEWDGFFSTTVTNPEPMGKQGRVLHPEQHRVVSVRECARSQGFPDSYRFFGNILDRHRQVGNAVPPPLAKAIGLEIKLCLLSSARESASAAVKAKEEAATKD
Test: Inhibition of N-terminal His6-tagged mouse DNMT1 (731 to 1602 residues) expressed in Escherichia coli BL21 (DE3) at 50 uM incubated for 15 mins before addition of [3H]-SAM and poly(dI-dC).poly(dI-dC) by liquid scintillation counting based radioactive methylation assay
Our labelling divides records by inhibition into ranges: LOW (below 30%), MID (30% to below 60%), HIGH (60% or more)

Into which category would you place OC(CNCCc1c[nH]c2ccccc12)Cn1c2ccc(Cl)cc2c2cc(Cl)ccc21 (racemic) ?
HIGH

Another compound: OCCNCC(O)Cn1c2ccc(Br)cc2c2cc(Br)ccc21 (racemic)
HIGH

Another compound: CCCN(CCC)CC(O)Cn1c2ccccc2c2ccccc21 (racemic)
LOW

Another compound: COCCNCC(O)Cn1c2ccccc2c2ccccc21 (racemic)
HIGH

Another compound: OC(CNCCc1ccccc1)Cn1c2ccccc2c2ccccc21 (racemic)
HIGH

Another compound: OC(CNCc1ccccc1)Cn1c2c(c3ccccc31)CCCC2 (racemic)
HIGH

Another compound: CC1CCN(CC(O)Cn2c3ccccc3c3ccccc32)CC1 (racemic)
MID

Another compound: OC(CNC1CC1)Cn1c2ccccc2c2ccccc21 (racemic)
MID

Next up:
Into which category would you place COc1ccc(NCC(O)Cn2c3ccccc3c3ccccc32)cc1 (racemic) ?
LOW

* * *

Measured log10 of IC50 on DNA (cytosine-5)-methyltransferase 1 (Mus musculus) follows.
Please keep in mind that the values are log10 of IC50 expressed in µM.

Examples with answers:
Any idea what log10 of IC50 was measured for `O[C@H](CNCCc1c[nH]c2ccccc12)Cn1c2ccccc2c2ccccc21` ?
0.86

Another molecule: COCCNCC(O)Cn1c2ccccc2c2ccccc21 (racemic)
1.47

Another molecule: OC(CNCc1ccccc1)Cn1c2c(c3ccccc31)CCCC2 (racemic)
1.91

Another molecule: `O[C@@H](CNCCc1c[nH]c2ccccc12)Cn1c2ccccc2c2ccccc21`
1.19

Another molecule: OCCNCC(O)Cn1c2ccc(Br)cc2c2cc(Br)ccc21 (racemic)
1.15

Continuing:
Any idea what log10 of IC50 was measured for CC(C)NCC(O)COC(Cn1c2ccccc2c2ccccc21)Cn1c2ccccc2c2ccccc21 (racemic) ?
0.23

* * *

System tested: Histone-lysine N-methyltransferase EHMT2 (Homo sapiens)
Sequence (Q96KQ7 whole entry): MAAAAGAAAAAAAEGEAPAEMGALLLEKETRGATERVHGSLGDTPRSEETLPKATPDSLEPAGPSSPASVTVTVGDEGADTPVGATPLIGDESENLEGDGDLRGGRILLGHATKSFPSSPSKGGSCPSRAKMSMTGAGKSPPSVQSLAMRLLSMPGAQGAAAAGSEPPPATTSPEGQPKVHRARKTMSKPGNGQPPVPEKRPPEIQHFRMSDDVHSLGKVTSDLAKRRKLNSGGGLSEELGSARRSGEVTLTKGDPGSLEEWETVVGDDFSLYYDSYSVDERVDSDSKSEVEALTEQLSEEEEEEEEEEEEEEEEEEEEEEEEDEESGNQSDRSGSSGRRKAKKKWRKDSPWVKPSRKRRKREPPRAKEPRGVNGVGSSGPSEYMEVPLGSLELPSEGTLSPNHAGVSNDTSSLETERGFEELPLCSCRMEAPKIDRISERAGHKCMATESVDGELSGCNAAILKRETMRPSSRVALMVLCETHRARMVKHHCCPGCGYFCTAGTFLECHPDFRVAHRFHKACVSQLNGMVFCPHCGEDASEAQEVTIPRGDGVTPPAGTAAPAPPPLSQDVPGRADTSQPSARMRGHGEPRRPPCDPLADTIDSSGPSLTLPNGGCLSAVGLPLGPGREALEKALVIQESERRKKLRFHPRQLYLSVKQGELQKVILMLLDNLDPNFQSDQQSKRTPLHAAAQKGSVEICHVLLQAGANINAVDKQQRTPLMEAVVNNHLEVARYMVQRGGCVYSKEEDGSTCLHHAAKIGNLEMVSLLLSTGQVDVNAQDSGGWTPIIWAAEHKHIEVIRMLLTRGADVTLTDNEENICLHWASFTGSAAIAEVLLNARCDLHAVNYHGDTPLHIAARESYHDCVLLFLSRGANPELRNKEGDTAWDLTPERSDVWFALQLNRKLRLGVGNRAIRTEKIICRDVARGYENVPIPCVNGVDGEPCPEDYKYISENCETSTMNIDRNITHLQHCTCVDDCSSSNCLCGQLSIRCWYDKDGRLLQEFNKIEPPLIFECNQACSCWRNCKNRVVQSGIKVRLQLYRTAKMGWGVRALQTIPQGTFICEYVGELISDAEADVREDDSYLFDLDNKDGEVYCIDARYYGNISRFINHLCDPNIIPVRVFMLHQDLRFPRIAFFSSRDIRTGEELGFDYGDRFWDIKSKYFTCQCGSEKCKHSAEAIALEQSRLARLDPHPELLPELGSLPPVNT
Measure: IC50

Lab request: please report IC50 under test system Histone-lysine N-methyltransferase EHMT2 (Homo sapiens) for OC(CNCCc1c[nH]c2ccccc12)Cn1c2ccccc2c2ccccc21 (racemic)
> 150 µM

The reported measurements were obtained from ChEMBL document CHEMBL3351464.
